# Test system: E. coli WT DSM-1116
# assay_name: MIC, microbroth dilution susceptibility assay
# Type: cell-based
# measurement_context: Escherichia coli, DSM1116; small panel, Tables 1a/1b; no visual growth after approx. 16 h; read-out: MIC E. coli WT DSM-1116
recorded_endpoint: MIC (µg/mL)

structure_smiles_string | recorded_endpoint | bound_operator | readout_number
CC(C)Oc1c(NC(=O)c2ccc(NC(=O)[C@H](CC(N)=O)NC(=O)c3ccc(NC(=O)c4ccc(C#N)cc4)cc3)cc2)ccc(C(=O)N[C@@H]2CONC2=O)c1O | MIC | > | 64
CO[C@@H](C(N)=O)[C@H](NC(=O)c1ccc(NC(=O)/C(C)=C/c2ccc(C#N)cc2)cc1)C(=O)Nc1ccc(C(=O)Nc2ccc(C(=O)Nc3ccc(C(=O)O)cc3)c(O)c2OC(C)C)cc1 | MIC | = | 1
C/C(=C/c1ccc(C#N)cc1)C(=O)Nc1ccc(C(=O)N[C@@H](CC(N)=O)C(=O)Nc2ccc(C(=O)Nc3ccc(C(=O)Nc4ccc(C(=O)O)cc4)c(O)c3OC(C)C)cc2)cc1 | MIC | = | 1
CC(C)Oc1c(NC(=O)c2ccc(NC(=O)[C@H](CC(N)=O)NC(=O)c3ccc(NC(=O)c4ccc(C#N)cc4)cc3)cc2)ccc(C(=O)Nc2cc(C(=O)O)n(C)c2)c1O | MIC | = | 0.5
Cc1cc(C(=O)Nc2ccc(C(=O)N[C@@H](CC(N)=O)C(=O)Nc3ccc(C(=O)Nc4ccc(C(=O)Nc5ccc(C(=O)O)cc5)c(O)c4OC(C)C)cc3)cc2)ccc1C#N | MIC | = | 0.5
CC(=O)Nc1ccc(C(=O)Nc2ccc(C(=O)N[C@@H](CC(N)=O)C(=O)Nc3ccc(C(=O)Nc4ccc(C(=O)Nc5ccc(C(=O)O)cc5)c(O)c4OC(C)C)cc3)cc2)cc1 | MIC | = | 16
CC(C)Oc1c(NC(=O)c2ccc(NC(=O)[C@H](CC(N)=O)NC(=O)c3ccc(NC(=O)c4ccc(C(F)(F)F)cc4)cc3)cc2)ccc(C(=O)Nc2ccc(C(=O)O)cc2)c1O | MIC | = | 0.5
Cc1cc(C#N)ccc1C(=O)Nc1ccc(C(=O)N[C@@H](CC(N)=O)C(=O)Nc2ccc(C(=O)Nc3ccc(C(=O)Nc4ccc(C(=O)O)cc4)c(O)c3OC(C)C)cc2)cc1 | MIC | = | 0.5
CC(C)Oc1c(NC(=O)c2ccc(NC(=O)[C@H](CC(N)=O)NC(=O)c3ccc(NC(=O)c4cccc(N)c4)cc3)cc2)ccc(C(=O)Nc2ccc(C(=O)O)cc2)c1O | MIC | = | 32
CC(C)COc1c(NC(=O)c2ccc(NC(=O)[C@H](CC(N)=O)NC(=O)c3ccc(NC(=O)c4ccc(C#N)cc4)cc3)cc2)ccc(C(=O)Nc2ccc(C(=O)O)cc2)c1O | MIC | = | 0.25

---

# Tested on: E. coli WT DSM-1116
# assay_name: MIC, microbroth dilution susceptibility assay
# Format: cell-based
# measurement_context: Escherichia coli, DSM1116; small panel, Tables 1a/1b; no visual growth after approx. 16 h; read-out: MIC E. coli WT DSM-1116
Parameter: MIC. Scope: all listed entries.
recorded_endpoint: MIC (µg/mL)

compound | recorded_endpoint | unit_info | bound_operator | readout_number
CC(C)Oc1c(NC(=O)c2ccc(NC(=O)[C@H](CC(N)=O)NC(=O)c3ccc(NC(=O)c4ccc(C#N)cc4)cc3)cc2)ccc(C(=O)Nc2ccncc2)c1O | MIC | µg/mL | > | 64
CC(C)Oc1c(NC(=O)c2ccc(NC(=O)[C@H](CC(N)=O)NC(=O)c3ccc(NC(=O)c4ccncc4)cc3)cc2)ccc(C(=O)Nc2ccc(C(=O)O)cc2)c1O | MIC | µg/mL | = | 1
CC(C)Oc1c(NC(=O)c2ccc(NC(=O)[C@H](CC(N)=O)NC(=O)c3ccc(NC(=O)C(C)Oc4ccccc4)cc3)cc2)ccc(C(=O)Nc2ccc(C(=O)O)cc2)c1O (stereo partly shown) | MIC | µg/mL | > | 64
CC(C)Oc1c(NC(=O)c2ccc(NC(=O)[C@H](CC(N)=O)NC(=O)c3ccc(NC(=O)c4ccc(NC(N)=O)cc4)cc3)cc2)ccc(C(=O)Nc2ccc(C(=O)O)cc2)c1O | MIC | µg/mL | = | 0.5
CC(C)Oc1c(NC(=O)c2ccc(NC(=O)[C@H](CC(N)=O)NC(=O)c3ccc(NC(=O)c4cccc([N+](=O)[O-])c4)cc3)cc2)ccc(C(=O)Nc2ccc(C(=O)O)cc2)c1O | MIC | µg/mL | > | 64
CC(C)Oc1c(NC(=O)c2ccc(NC(=O)[C@H](CC(N)=O)NC(=O)c3ccc(NC(=O)c4ccc(C#N)cc4)cc3)cc2)ccc(C(=O)Nc2ccc(C(=O)O)cc2)c1O | MIC | µg/mL | = | 0.5
CC(C)Oc1c(NC(=O)c2ccc(NC(=O)[C@H](CC(N)=O)NC(=O)c3ccc(NC(=O)c4ccc(F)cc4)cc3)cc2)ccc(C(=O)Nc2ccc(C(=O)O)cc2)c1O | MIC | µg/mL | = | 0.5
C/C(=C\c1ccc(C#N)cc1)C(=O)Nc1ccc(C(=O)N[C@@H](CC(N)=O)C(=O)Nc2ccc(C(=O)Nc3ccc(C(=O)Nc4ccc(C(=O)O)cc4)c(O)c3OC(C)C)cc2)cc1 | MIC | µg/mL | = | 0.125
CC(C)Oc1cc(C(=O)Nc2ccc(C(=O)O)cc2)ccc1NC(=O)c1ccc(NC(=O)[C@H](CC(N)=O)NC(=O)c2ccc(NC(=O)c3ccc([N+](=O)[O-])cc3)cc2)cc1 | MIC | µg/mL | > | 64
C/C(=C\c1ccc(O)cc1)C(=O)Nc1ccc(C(=O)N[C@@H](CC(N)=O)C(=O)Nc2ccc(C(=O)Nc3ccc(C(=O)Nc4ccc(C(=O)O)cc4)c(O)c3OC(C)C)cc2)cc1 | MIC | µg/mL | = | 0.25
